Here the recorded % Binding retained on T-cells, 60° C. is given for each entry.
molecular target: T1, CD3 on primary human pan T cells (human, UniProt P07766 23-207); test: flow cytometry, pan T-cells
T1 construct: on cells it stands in the TCR/CD3 complex; also called Pan T-cells (CD3-positive); endogenous CD3
T1 sequence (P07766 23-207 limits assumed): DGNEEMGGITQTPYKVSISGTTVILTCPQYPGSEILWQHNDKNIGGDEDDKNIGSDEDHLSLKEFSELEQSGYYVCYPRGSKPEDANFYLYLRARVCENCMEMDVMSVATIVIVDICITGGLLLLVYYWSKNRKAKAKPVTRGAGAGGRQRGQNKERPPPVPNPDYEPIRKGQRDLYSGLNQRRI

| binder | % Binding retained on T-cells, 60° C. [fraction] |
| --- | --- |
| CD3B2030 (scFv) scFv: QVQLVQSGAEVKKPGSSVKVSCKASGYTFTRSTMHWVKQAPGQGLEWIGYINPSSAYTNYNQKFQGRVTLTADKSTSTAYMELSSLRSEDTAVYYCASPQVHYDYNGFPYWGQGTLVTVSSGGSEGKSSGSGSESKSTGGSEIVLTQSPATLSASPGERVTLSCSASSSVSYMNWYQQKPGQAPRRWIYDSSKLASGVPARFSGSGSGRDYTLTISSLEPEDFAVYYCQQWSRNPPTFGGGTKVEIK | 1.1 |
| CD3B2035 (scFv) scFv: QVQLVQSGAEVKKPGSSVKVSCKASGYTFTRSTMHWVKQAPGQGLEWMGYINPSSAYTNYNQKFQGRVTLTADKSTSTAYMELSSLRSEDTAVYYCASPQVHYDYNGFPYWGQGTLVTVSSGGSEGKSSGSGSESKSTGGSEIVLTQSPATLSASPGERVTLSCSASSSVSYMNWYQQKPGQAPRRWIYDSSKLASGVPARFSGSGSGRDYTLTISSLEPEDFAVYYCQQWSRNPPTFGGGTKVEIK | 1.14 |
